Target: EZH1 (Homo sapiens, UniProt Q92800)
Sequence (Q92800 whole entry, species assumed): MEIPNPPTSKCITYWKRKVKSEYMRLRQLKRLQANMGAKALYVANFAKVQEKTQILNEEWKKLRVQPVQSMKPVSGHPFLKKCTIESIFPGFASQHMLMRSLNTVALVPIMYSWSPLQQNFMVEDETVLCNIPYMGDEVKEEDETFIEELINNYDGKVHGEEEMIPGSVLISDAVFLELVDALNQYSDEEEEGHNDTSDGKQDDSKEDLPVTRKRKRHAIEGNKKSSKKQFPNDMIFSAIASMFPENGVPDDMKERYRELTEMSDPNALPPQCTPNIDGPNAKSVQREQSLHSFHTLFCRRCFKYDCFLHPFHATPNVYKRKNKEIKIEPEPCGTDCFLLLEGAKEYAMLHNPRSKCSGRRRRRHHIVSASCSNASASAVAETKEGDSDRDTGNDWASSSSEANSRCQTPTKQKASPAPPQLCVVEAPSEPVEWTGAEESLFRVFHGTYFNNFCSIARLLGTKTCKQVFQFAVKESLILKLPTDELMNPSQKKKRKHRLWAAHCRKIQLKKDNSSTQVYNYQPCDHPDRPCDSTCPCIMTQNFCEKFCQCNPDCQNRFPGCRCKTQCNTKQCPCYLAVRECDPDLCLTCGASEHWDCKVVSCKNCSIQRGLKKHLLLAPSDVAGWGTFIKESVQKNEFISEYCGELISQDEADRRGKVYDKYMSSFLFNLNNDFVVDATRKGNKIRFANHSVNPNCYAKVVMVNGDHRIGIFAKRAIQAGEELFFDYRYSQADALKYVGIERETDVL
Sequence (O75530 whole entry partner, species assumed): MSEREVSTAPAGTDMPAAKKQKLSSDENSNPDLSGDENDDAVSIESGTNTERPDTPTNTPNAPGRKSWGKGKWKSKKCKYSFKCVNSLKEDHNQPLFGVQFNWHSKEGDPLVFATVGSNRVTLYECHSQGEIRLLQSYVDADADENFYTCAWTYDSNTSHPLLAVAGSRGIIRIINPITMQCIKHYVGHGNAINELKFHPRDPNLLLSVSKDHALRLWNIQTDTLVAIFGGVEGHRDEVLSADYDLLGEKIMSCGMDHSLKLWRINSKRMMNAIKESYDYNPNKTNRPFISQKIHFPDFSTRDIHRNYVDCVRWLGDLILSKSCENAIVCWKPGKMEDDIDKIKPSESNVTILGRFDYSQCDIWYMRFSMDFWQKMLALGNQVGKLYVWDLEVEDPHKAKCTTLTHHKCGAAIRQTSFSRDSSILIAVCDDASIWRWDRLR
Sequence (Q15022 whole entry partner, species assumed): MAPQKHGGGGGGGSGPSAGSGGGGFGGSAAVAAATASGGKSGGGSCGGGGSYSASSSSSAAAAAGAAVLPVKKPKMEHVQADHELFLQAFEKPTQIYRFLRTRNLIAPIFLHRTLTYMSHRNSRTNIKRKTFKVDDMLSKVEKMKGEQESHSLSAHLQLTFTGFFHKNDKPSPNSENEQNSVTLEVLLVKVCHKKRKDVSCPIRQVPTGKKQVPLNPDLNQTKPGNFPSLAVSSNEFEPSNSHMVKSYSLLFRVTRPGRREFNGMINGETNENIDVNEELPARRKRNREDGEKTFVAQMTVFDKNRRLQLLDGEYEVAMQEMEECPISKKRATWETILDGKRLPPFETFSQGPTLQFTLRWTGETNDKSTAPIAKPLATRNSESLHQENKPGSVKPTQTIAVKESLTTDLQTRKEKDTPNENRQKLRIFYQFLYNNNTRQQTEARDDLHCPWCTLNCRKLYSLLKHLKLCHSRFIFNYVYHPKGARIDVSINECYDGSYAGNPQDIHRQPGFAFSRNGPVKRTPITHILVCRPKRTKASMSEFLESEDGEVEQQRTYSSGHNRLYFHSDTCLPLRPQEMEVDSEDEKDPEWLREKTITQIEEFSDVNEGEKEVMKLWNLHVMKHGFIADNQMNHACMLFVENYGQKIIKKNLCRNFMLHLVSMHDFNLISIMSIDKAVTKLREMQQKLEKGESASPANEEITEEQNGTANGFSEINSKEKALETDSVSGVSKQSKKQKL
Experiment: AlphaLISA enzyme activity inhibition, EZH1
Format: biochemical
Settings: 10nM test substance
Procedure: In order to confirm the EZH1 and/or EZH2 activity inhibitory effect of the 1,3-benzodioxole derivative compounds represented by chemical formula I of the present invention, the activity was measured using an AlphaLISA test method. […] An activity was measured using the Magellan program on a Spark10M instrument. DMSO was used as a control group, an inhibition rate of enzyme activity was calculated using a following equation, and the results thereof are shown in Table 1 below. […]
Reported inhibition at 0.01 µM values for a set of molecules
Number only, in %; omit the unit.

CSc1cc(C)[nH]c(=O)c1CNC(=O)c1cc(-c2ccc(N3C[C@@H](C)O[C@@H](C)C3)nc2)c2c(c1C)OC(C)(C1CCN(CC(F)(F)F)CC1)O2 (single isomer, unassigned) = 78.2

What inhibition at 0.01 µM value was documented for this molecule, CCN1CCC(C2(C)Oc3c(-c4ccc(N5CCOCC5)nc4)cc(C(=O)NCc4c(SC)cc(C)[nH]c4=O)c(C)c3O2)CC1 (single isomer, unassigned) ?
90.9

Same question for CSc1cc(C)[nH]c(=O)c1CNC(=O)c1cc(-c2ccc3c(c2)OC(F)(F)O3)c2c(c1C)OC(C)(C1CCN(CC(F)(F)F)CC1)O2 (centres unmarked) please.
12.7

Same question for CSc1cc(C)[nH]c(=O)c1CNC(=O)c1cc(-c2ccc(N3C[C@@H](C)O[C@@H](C)C3)nc2)c2c(c1C)OC(C)([C@H]1CC[C@H](N(C)C3CCCCC3)CC1)O2 (some centres unmarked) please.
38.2

Same question for CCN(C)c1ncc(-c2cc(C(=O)NCc3c(SC)cc(C)[nH]c3=O)c(C)c3c2OC(C)(C2CCN(CC(F)F)CC2)O3)cn1 (single isomer, unassigned) please.
90.8

* * *

System: SW-13 cells
Assay: Cancer cell proliferation inhibition (Cell Counting Kit-8), adrenal cancer cell line
Type: cell-based
Details: Homo sapiens, SW13, 264 h, 1000 nM, cultured seven to 11 days; read-out: % inhibition rate SW-13
Method: In addition, as one example of solid cancer in which an overexpression of EZH2 and a consequent disease association therebetween is reported, a proliferation inhibitory activity of the 1,3-benzodioxole derivative compounds represented by chemical formula I of the present invention was evaluated in Lovo cells as a colorectal cancer cell line, SW-13 cells as an adrenal cancer cell line, MIA-PaCa-2 cells as a pancreatic cancer cell line, and NCI-H1299 cells as a lung cancer cell line. […]
parameter_measured: inhibition at 1 µM

Worked examples, 5 molecules total:
COCCN(C)[C@H]1CC[C@H](C2(C)Oc3c(-c4cnc(N5C[C@@H](C)O[C@@H](C)C5)nc4)cc(C(=O)NCc4c(SC)cc(C)[nH]c4=O)c(C)c3O2)CC1 (some centres unmarked) [Compound 25] = 30 to 70%
CSc1cc(C)[nH]c(=O)c1CNC(=O)c1cc(-c2ccc(N3CCSCC3)nc2)c2c(c1C)OC(C)([C@H]1CC[C@H](N(C)C)CC1)O2 (relative stereo) [Compound 17] = 30 to 70%
CSc1cc(C)[nH]c(=O)c1CNC(=O)c1cc(-c2ccc(N3C[C@@H](C)O[C@@H](C)C3)nc2)c2c(c1C)OC(C)([C@H]1CC[C@H](N3CC(CC(F)(F)F)C3)CC1)O2 (some centres unmarked) [Compound 102] = ≥ 70%
COC1CN([C@H]2CC[C@H](C3(C)Oc4c(-c5ccc(N6C[C@@H](C)O[C@@H](C)C6)nc5)cc(C(=O)NCc5c(SC)cc(C)[nH]c5=O)c(C)c4O3)CC2)C1 (some centres unmarked) [Compound 106] = 30 to 70%
CSc1cc(C)[nH]c(=O)c1CNC(=O)c1cc(-c2ccc3c(ccn3C)c2)c2c(c1C)OC(C)([C@H]1CC[C@H](N(C)C)CC1)O2 (relative stereo) [Compound 7] = 30 to 70%

What inhibition at 1 µM value was documented for this molecule, CSc1cc(C)[nH]c(=O)c1CNC(=O)c1cc(-c2ccc(N3C[C@@H](C)O[C@@H](C)C3)nc2)c2c(c1C)OC(C)([C@H]1CC[C@H](N(C)CCCC(F)(F)F)CC1)O2 (some centres unmarked) [Compound 113] ?
30 to 70%

Same question for CSc1cc(C)[nH]c(=O)c1CNC(=O)c1cc(-c2ccc(N3C[C@@H](C)O[C@@H](C)C3)nc2)c2c(c1C)OC(C)(C1CCN(C3CCCCC3)CC1)O2 (single isomer, unassigned) [Compound 53] please.
30 to 70%

Same question for CSc1cc(C)[nH]c(=O)c1CNC(=O)c1cc(-c2cnc(N3CCSCC3)nc2)c2c(c1C)OC(C)(C1CCN(CC(F)(F)F)CC1)O2 (centres unmarked) [Compound 92] please.
≤ 30%

The reported measurements were obtained from patent EP4740948A1.
